Target: UniProt O35678
Sequence (O35678 1-303): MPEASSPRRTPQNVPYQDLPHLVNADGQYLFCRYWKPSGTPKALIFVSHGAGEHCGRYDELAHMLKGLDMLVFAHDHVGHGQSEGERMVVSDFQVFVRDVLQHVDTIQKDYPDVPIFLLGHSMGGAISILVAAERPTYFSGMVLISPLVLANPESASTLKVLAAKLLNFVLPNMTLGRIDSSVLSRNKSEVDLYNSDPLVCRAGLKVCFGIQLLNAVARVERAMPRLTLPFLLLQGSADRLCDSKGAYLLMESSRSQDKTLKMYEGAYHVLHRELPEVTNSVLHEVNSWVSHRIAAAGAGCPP
Assay: In vitro competitive activity-based protein profiling, MAGL, mouse
Details: read-out: MAGL % inh. 1 μM (mouse)
Exercise: state measured inhibition at 1 µM for each of the compounds provided.

Value lookup for inhibition at 1 µM; key = O=C(O)c1ccn(C(=O)N2CCN(Cc3cccc(Oc4ccc(F)cn4)c3)CC2)n1
> 75%

Recorded inhibition at 1 µM for O=C(O)c1ccn(C(=O)N2CC3CN(Cc4cccc(C(F)(F)F)c4)CC3C2)n1 (stereo not shown) , please?
25 to 50%

Look up inhibition at 1 µM: O=C(O)c1ccn(C(=O)N2CCN(Cc3ccc(N4CC5COCC5C4)cc3C(F)(F)F)CC2)n1 (stereo not shown)
> 75%

I have this compound here, C[C@H]1C[C@@H](N(C)Cc2cccc(C(F)(F)F)c2)CCN1C(=O)n1ccc(C(N)=O)n1 , and I need its recorded inhibition at 1 µM.
> 75%
